# Resultant pH per record follows
# assay.name: Hydrogel formation by dissolving peptides in NaOH solution
# Type: physicochemical
# assay.context: 4% weight peptide in 100 μl NaOH solution, NaOH conc. 0.05

Some solved entries appear below for comparison.
| substance | endpoint.result |
| --- | --- |
| Pro-Asp-(Phe-Asp)6 (PDFDFDFDFDFDFD) | ~7 |
| Ac-Pro-Asp-(Phe-Asp)5-Pro-NH2 (Ac-PDFDFDFDFDFDP-NH2) | >7.5 |
| Pro-Asp-Phe-Asp (PDFD; printed: Pro-Asp-Phe-Asp) | ~4 |

Tell me the measured Resultant pH of (Phe-Asp)6 (FDFDFDFDFDFD) , please. ~7
